The reader will find reported DC50 values listed item by item below.
target.of.assay: SMARCA4-HiBiT HeLa cells (protein which is expressed from the SMARCA4 gene) (Homo sapiens)
Construct: protein which is expressed from the SMARCA2 and SMARCA4 genes; host or cells: HeLa (SMARCA4-HiBiT engineered line)
Sequence (P51532 whole entry): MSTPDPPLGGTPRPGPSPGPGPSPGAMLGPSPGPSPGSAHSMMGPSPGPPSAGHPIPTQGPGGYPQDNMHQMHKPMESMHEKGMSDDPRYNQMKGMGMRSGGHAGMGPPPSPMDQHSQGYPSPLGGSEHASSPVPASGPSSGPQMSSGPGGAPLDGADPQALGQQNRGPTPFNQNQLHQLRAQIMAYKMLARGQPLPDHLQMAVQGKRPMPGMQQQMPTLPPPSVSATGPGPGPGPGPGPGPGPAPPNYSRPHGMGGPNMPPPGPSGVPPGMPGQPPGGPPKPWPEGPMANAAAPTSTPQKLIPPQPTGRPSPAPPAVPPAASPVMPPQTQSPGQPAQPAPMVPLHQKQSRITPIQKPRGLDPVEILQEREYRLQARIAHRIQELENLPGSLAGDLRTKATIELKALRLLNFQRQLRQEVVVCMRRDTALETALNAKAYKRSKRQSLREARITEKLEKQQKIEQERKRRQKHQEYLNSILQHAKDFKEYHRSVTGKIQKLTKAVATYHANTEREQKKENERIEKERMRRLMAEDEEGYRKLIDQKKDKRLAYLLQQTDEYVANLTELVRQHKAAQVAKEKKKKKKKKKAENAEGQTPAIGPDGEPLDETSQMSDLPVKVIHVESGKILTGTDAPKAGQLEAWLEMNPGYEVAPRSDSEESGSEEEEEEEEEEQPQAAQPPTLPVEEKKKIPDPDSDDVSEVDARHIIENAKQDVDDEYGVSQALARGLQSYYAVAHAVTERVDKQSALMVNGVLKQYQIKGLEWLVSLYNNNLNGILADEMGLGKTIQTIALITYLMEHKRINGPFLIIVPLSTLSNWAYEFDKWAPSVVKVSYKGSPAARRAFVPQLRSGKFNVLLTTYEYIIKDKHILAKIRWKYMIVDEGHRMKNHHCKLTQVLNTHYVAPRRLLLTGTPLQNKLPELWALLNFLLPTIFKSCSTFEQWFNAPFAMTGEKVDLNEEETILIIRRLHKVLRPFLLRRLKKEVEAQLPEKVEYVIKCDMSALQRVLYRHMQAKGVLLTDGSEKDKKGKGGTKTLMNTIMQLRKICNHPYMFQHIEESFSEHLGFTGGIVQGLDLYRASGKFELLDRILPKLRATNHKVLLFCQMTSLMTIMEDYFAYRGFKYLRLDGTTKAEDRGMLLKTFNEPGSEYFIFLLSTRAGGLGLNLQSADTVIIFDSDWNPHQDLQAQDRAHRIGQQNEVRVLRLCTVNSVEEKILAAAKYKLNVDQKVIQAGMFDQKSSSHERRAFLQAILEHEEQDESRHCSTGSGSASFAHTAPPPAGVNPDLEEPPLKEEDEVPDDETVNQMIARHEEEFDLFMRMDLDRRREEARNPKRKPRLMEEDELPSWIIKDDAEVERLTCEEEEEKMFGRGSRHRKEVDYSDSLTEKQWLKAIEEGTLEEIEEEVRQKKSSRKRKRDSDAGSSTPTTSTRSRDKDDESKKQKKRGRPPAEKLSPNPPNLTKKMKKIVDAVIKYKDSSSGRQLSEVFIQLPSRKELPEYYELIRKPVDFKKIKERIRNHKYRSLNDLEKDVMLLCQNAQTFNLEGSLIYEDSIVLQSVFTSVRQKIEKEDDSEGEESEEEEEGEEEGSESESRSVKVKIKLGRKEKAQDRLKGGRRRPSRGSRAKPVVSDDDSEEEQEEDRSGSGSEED
method: SMARCA4 degradation assay (HiBiT-fusion HeLa cell line, 24 h, luminescence)
Type: cell-based

smiles.record: C[C@@H]1CN(CC#Cc2nccc(N3CCCN(c4cc(-c5ccccc5O)nnc4N)CC3)n2)C[C@@H](C)O1
assay.readout: DC50
readout.value: 500 to 5000 nM

Challenge: Any idea what its DC50 is? The molecule is `CC(C)[C@@H]1COCCN1CC#Cc1nccc(N2CCN(c3cc(-c4ccccc4O)nnc3N)CC[C@H]2C)n1`
Response given: 50 to 500 nM

Challenge: Thanks! And `Nc1nnc(-c2ccccc2O)cc1N1CCCN(c2ccnc(C#CCn3cnc4ccccc43)n2)CC1` ?
Response given: 50 to 500 nM

Challenge: Thanks! And `Nc1nnc(-c2ccccc2O)cc1N1CCCN(c2ccnc(C#CCN3CC(=O)NC(=O)C3)n2)CC1` ?
Response given: 500 to 5000 nM

----------
target.of.assay: SMARCA2-HiBiT HeLa cells (protein which is expressed from the SMARCA2 gene) (Homo sapiens, UniProt P51531)
Construct: protein which is expressed from the SMARCA2 and SMARCA4 genes; host or cells: HeLa (SMARCA2-HiBiT engineered line)
Sequence (P51531 whole entry): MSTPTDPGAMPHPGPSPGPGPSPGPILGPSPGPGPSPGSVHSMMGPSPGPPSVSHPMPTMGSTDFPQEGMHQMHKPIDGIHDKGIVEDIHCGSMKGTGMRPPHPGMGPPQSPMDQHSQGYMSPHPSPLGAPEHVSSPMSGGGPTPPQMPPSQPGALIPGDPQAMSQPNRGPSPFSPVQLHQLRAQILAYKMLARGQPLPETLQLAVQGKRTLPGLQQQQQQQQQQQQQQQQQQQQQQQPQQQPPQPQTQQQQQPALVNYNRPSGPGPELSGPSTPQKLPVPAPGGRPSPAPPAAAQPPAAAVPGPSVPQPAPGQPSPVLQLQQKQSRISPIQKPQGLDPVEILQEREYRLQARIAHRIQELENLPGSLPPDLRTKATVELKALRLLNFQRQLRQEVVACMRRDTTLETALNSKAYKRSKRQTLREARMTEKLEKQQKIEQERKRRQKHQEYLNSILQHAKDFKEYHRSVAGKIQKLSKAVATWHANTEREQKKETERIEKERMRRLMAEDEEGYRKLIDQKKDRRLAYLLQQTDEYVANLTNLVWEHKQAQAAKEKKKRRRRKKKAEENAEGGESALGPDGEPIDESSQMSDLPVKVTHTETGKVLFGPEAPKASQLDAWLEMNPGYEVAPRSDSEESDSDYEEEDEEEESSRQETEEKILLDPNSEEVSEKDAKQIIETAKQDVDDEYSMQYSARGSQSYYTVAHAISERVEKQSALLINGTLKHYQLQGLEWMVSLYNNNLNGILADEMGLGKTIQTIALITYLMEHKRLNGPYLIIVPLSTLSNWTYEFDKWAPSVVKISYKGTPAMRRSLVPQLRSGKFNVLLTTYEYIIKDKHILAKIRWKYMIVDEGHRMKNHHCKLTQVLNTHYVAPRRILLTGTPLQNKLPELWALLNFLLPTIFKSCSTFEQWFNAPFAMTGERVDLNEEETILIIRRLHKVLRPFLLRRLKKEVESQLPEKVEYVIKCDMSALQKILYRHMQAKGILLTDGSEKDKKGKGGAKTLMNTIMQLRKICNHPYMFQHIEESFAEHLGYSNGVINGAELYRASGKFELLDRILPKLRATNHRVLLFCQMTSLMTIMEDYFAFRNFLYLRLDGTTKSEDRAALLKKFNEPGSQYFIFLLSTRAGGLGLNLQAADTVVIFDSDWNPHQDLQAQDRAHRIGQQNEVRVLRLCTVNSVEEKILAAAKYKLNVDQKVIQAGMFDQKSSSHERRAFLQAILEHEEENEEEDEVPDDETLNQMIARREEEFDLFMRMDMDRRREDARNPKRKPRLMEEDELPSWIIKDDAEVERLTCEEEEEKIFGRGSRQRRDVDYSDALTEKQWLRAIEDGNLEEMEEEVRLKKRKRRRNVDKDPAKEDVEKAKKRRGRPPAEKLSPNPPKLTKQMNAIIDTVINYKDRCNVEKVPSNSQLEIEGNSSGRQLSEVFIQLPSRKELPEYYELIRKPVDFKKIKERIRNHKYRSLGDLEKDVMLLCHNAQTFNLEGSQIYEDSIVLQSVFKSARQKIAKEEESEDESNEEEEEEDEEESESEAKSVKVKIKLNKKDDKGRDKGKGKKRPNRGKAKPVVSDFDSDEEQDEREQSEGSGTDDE
method: SMARCA2 degradation assay (HiBiT-fusion HeLa cell line, 24 h, luminescence)
Assay type: cell-based
run.conditions: @ 1 μM
assay.readout: SMARCA2 % Degradation @ 1 μM

compound: CCNC(=O)NCC#Cc1nccc(N2CCCN(c3cc(-c4ccccc4O)nnc3N)CC2)n1
SMARCA2 % Degradation @ 1 μM: ++ (++=30-70%)
//
compound: Cc1cnc(C#CCN(C)C)nc1N1CCN(c2cc(-c3ccccc3O)nnc2N)CC[C@H]1C
SMARCA2 % Degradation @ 1 μM: +++ (+++=>70%)
//
compound: C[C@@H]1CCN(c2cc(-c3ccccc3O)nnc2N)CCN1c1ccnc(C#CCOCC2CC(N(C)C)C2)n1 (stereo partly drawn)
SMARCA2 % Degradation @ 1 μM: +++ (+++=>70%)
//
compound: Nc1nnc(-c2ccccc2O)cc1N1CCCN(c2ccnc(C#CCN3CCN(C(=O)C4CC4)CC3)n2)CC1
SMARCA2 % Degradation @ 1 μM: ++ (++=30-70%)
//
compound: Cn1ccc(NCC#Cc2nccc(N3CCCN(c4cc(-c5ccccc5O)nnc4N)CC3)n2)n1
SMARCA2 % Degradation @ 1 μM: ++ (++=30-70%)

Challenge: Any idea what its SMARCA2 % Degradation @ 1 μM is? The compound is `CN(C)CC#Cc1ncc(F)c(N2C3CCC2CN(c2cc(-c4ccccc4O)nnc2N)C3)n1`
Response given: ++ (++=30-70%)

Challenge: Thanks! And `CC[C@H](C)NCC#Cc1nccc(N2CCCN(c3cc(-c4ccccc4O)nnc3N)CC2)n1` ?
Response given: +++ (+++=>70%)

Challenge: Thanks! And `CCc1cc(C(=O)NCC#Cc2nccc(N3CCN(c4cc(-c5ccccc5O)nnc4N)CC3)n2)nn1C` ?
Response given: ++ (++=30-70%)

Challenge: Thanks! And `CN(C)CC#Cc1nccc(N2C[C@@H]3CN(c4cc(-c5ccccc5O)nnc4N)C[C@@H]3C2)n1` ?
Response given: ++ (++=30-70%)

Challenge: Thanks! And `COC[C@@H](C)NCC#Cc1nccc(N2CCCN(c3cc(-c4ccccc4O)nnc3N)CC2)n1` ?
Response given: ++ (++=30-70%)

These data points were gathered from patent US20260265238A1.
